study-target: human DGAT1 (Homo sapiens, UniProt O75907)
Construct: FLAG (N); made in house; host or cells: SF9 insect cells (pFastBac / baculovirus); total cell membranes
Sequence (O75907 whole entry): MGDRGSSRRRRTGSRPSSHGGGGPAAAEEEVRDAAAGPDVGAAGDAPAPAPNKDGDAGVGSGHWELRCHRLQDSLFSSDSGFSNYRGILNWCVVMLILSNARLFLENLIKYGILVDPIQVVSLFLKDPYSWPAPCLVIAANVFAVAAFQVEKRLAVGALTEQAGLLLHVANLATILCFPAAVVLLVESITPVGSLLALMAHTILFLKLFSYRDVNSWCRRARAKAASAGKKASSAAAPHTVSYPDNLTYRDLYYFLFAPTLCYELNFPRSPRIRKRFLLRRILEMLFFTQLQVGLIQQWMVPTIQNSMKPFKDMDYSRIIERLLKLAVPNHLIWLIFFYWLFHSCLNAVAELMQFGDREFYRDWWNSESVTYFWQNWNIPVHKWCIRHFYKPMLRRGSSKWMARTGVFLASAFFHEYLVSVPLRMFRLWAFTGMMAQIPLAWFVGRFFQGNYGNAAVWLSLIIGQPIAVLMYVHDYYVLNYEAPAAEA
procedure-summary: DGAT1 FlashPlate assay: inhibition of DGAT1 activity in membrane preparations
Format: biochemical
stated-conditions: human DGAT1 membranes from SF9 cells, [3H]-oleoylCoA, 120 min at 37° C.; read-out: pIC50 (-logIC50, 50% inhibition of DGAT1 activity) (converted)
Listed here are compounds together with their documented IC50.

>  <compound>
COc1ccc(CC(=O)Nc2ccc(N3CCN(C(=O)Cc4ccc(CN5CCCC5)cc4Cl)CC3)cc2)cc1 [355-Class D]

>  <study-target>
human DGAT1 (Homo sapiens, UniProt O75907)

>  <IC50>
912 nM

$$$$
>  <compound>
O=C(Nc1cccc(N2CCCC2)c1)c1ccc(N2CCN(C(=O)Cc3c(Cl)cc(CN4CCCC4)cc3Cl)CC2)cc1 [147-Class C]

>  <study-target>
human DGAT1 (Homo sapiens, UniProt O75907)

>  <IC50>
38.9 nM

$$$$
>  <compound>
COc1cc(CNC(=O)c2ccc(N3CCN(C(=O)Cc4c(Cl)cc(CN5CCCC5)cc4Cl)CC3)cc2)cc(OC)c1 [358-Class D]

>  <study-target>
human DGAT1 (Homo sapiens, UniProt O75907)

>  <IC50>
25.7 nM

$$$$
>  <compound>
O=C(Nc1cccc(N2CCCC2)c1)c1ccc(N2CCN(C(=O)C(O)c3ccc(CN4CCCC4)cc3Cl)CC2)cc1 (stereo not shown) [152-Class C]

>  <study-target>
human DGAT1 (Homo sapiens, UniProt O75907)

>  <IC50>
35.5 nM

$$$$

// provenance: patent US9107946B2
